Source listed as patent US9243044B2.

Test system: BALb/c mice
Assay: Mouse tail bleeding time
Assay type: in vivo
Conditions: 5 mg·kg^−1 tail vein, tail transected after 10 min
Procedure: After 10 min, the distal tip 1.5 mm of the mouse tail was transected and the blood oozed was soaked with filter paper very 30 seconds until the bleeding stops. The bleeding time was defined as the time elapsed from the tail transection to the stoppage of bleeding.
List of Bleeding time values.
Express it in min; write the number only.

INSERT INTO results (molecule, observed) VALUES
  ('NAPTin-7 (protein, Sequence derived from Ancylostoma caninum or Synthetic) NPSCGENERHDECSRKECDPKCKYDGTEEKDDEKPVVCLTRVCYGDCICRDGFLRNKNGACVKAEDC', 8.31),
  ('NAPTin-5 (protein, Sequence derived from Ancylostoma caninum or Synthetic) NPSCGENERHDECSRKECDPKCKYDGTEEKDDEKPVVCLTRVCYGDCICRDGFLRNKNGACVKAEDCEL', 8.33),
  ('NAPTin-1 (protein, Sequence derived from Ancylostoma caninum or Synthetic) NPSCGENERHDECSRKECDPKCKYDGTEEKDDEKPVVCLTRVCYGDCICRDGFLRNKNGACVKAEDCELD', 8.28);

### Prompt Respond only with Bleeding time recorded for NAPTin-3 (protein, Sequence derived from Ancylostoma caninum or Synthetic) NPSCGENERHDECSRKECDPKCKYDGTEEKDDEKPVVCLTRVCYGDCICRDGFLRNKNGACVKAEDCELDNM
### Response 8.32
